# target entity: Bcl-2 protein (Recombinant Human Bcl-2 Protein) (Homo sapiens, UniProt P10415)
# Construct: purchased Novus Biologicals NBP2-34889
# Sequence (P10415 whole entry): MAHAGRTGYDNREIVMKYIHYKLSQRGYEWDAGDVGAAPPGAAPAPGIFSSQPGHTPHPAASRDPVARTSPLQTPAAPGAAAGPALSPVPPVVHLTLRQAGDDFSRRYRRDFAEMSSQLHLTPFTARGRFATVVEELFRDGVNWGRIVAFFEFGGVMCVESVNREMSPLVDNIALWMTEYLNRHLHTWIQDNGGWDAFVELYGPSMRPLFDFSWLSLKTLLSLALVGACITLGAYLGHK
# experimental protocol: AS-MS evaluation of binding of the Example 4 mixture library (1200 compounds/well) to Bcl-2, ASMS ratio (%)
# run parameters: AS-MS, Example 4 mixture library, Bcl-2, replicate n = 2
For each of the compounds below, state its ASMS ratio (%) n = 2.
Numbers only, in %.

Field: example entries. Status: answers known.
compound="CCOc1cncc(-c2ccc(CN3CCN(c4ccc(C(=O)NS(=O)(=O)c5ccc(NCCSc6ccccc6)c(C(F)(F)F)c5)nn4)CC3)c(OC)c2)c1 [Compound B2R080-01]" target_entity="Bcl-2 protein (Recombinant Human Bcl-2 Protein) (Homo sapiens, UniProt P10415)" observed_result=21.2
compound="CCOc1cncc(-c2ccc(C(C)N3CCN(c4ccc(C(=O)NS(=O)(=O)c5ccc(NCCSc6ccccc6)c(C(F)(F)F)c5)cc4)CC3)c(F)c2)c1 (stereo not drawn) [Compound B2R100-01]" target_entity="Bcl-2 protein (Recombinant Human Bcl-2 Protein) (Homo sapiens, UniProt P10415)" observed_result=10.1
compound="CCOc1cncc(-c2cc(CN3CCN(c4ccc(C(=O)NS(=O)(=O)C(C)(C)C)nn4)CC3)cc(OC(F)(F)F)c2)c1 [Compound B2L090-01]" target_entity="Bcl-2 protein (Recombinant Human Bcl-2 Protein) (Homo sapiens, UniProt P10415)" observed_result=0.0
compound="CCOc1cccc(-c2cc(CN3CCN(c4ccc(C(=O)NS(=O)(=O)C(C)(C)C)nn4)CC3)cc(OC(F)(F)F)c2)c1 [Compound B2L089-01]" target_entity="Bcl-2 protein (Recombinant Human Bcl-2 Protein) (Homo sapiens, UniProt P10415)" observed_result=0.0
compound="CCOc1cncc(-c2cc(CN3CCN(c4ccc(C(=O)NS(=O)(=O)CCC(F)(F)F)nn4)CC3)cc(OC(F)(F)F)c2)c1 [Compound B2N090-01]" target_entity="Bcl-2 protein (Recombinant Human Bcl-2 Protein) (Homo sapiens, UniProt P10415)" observed_result=0.0

// for each compound below, give its ASMS ratio (%) n = 2
1. CCOc1cccc(-c2cc(OC)c(CN3CCN(c4ccc(C(=O)NS(=O)(=O)C(C)(C)C)nn4)CC3)c(OC)c2)c1 [Compound B2L085-01]
2. CCOc1cncc(-c2ccc(CN3CCN(c4ccc(C(=O)NS(=O)(=O)CCC(F)(F)F)cc4)CC3)c3ccccc23)c1 [Compound B2N066-01]
3. CCOc1cccc(-c2cc(C(=O)N3CCN(c4ccc(C(=O)NS(=O)(=O)c5ccc(NCCSc6ccccc6)c(C(F)(F)F)c5)cc4)CC3)cc(C(F)(F)F)c2)c1 [Compound B2R039-01]
4. CCOc1cccc(-c2ccc(C(=O)N3CCN(c4ccc(C(=O)NS(=O)(=O)c5ccc(NCCSc6ccccc6)c(C(F)(F)F)c5)nn4)CC3)cc2F)c1 [Compound B2R005-01]

0.0
0.0
−4.8
39.5

// for each compound below, give its ASMS ratio (%) n = 2
1. CCOc1cncc(-c2cc(CN3CCN(c4ccc(C(=O)NS(=O)(=O)CCC(F)(F)F)nn4)CC3)cc(OC(C)C)c2)c1 [Compound B2N084-01]
2. CCOc1cncc(C#Cc2cncc(C(=O)N3CCN(c4ccc(C(=O)NS(=O)(=O)CCC(F)(F)F)cc4)CC3)c2)c1 [Compound B2N032-01]
3. CCOc1cccc(-c2ccc(C(=O)N3CCN(c4ccc(C(=O)NS(=O)(=O)CCC(F)(F)F)nn4)CC3)c3ccccc23)c1 [Compound B2N013-01]

[0.0, "−1.0", 0.0]
